Assay: HILIC, Merck SeQuant ZIC-HILIC, 100 × 2.1 mm, 3.5 µm, 25 °C, 0.3 mL/min, estimated dead time 0.73 min; A: water + 0.1% formic acid, pH 3; B: acetonitrile + 0.1% formic acid, pH 3; gradient (min/%B) 0/95 1.5/95 13.5/40 15.5/40 29.7/25 33.5/25 34.5/95 41.5/95
Conditions: stereoisomer not certain
We'd kindly ask you to apply these LC retention time classes: low-valued (below 5 min), mid-valued (5 min to below 7 min), high-valued (7 min or more)

Previously resolved entries follow.
compound	class
CC(=O)c1cnccn1 [2-Acetylpyrazine]	low-valued
O=c1[nH]c2ccccc2o1 [2-Benzoxazolinone]	low-valued

Field: class (LC retention time) — entry: CSCC1OC(n2cnc3c(N)ncnc32)C(O)C1O (configuration not stated) [Methylthioadenosine]
low-valued

Field: class (LC retention time) — entry: CN[C@H](CC(=O)O)C(=O)O [N-methyl-D-aspartic acid]
high-valued

Field: class (LC retention time) — entry: CC(C)(C)NCC(O)c1ccc(O)c(CO)c1 (configuration not stated) [Salbutamol]
mid-valued
